# TDCC EC50 (EJM cells) per entry
# Tested system: T1, human BCMA on BCMA expressing cell lines (human, UniProt Q02223 1-184)
# T1 sequence: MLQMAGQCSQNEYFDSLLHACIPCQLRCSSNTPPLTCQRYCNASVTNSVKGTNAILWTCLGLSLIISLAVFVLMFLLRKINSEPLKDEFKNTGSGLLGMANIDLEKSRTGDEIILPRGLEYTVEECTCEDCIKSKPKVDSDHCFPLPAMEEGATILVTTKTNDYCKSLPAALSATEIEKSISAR
# Assay text: cell-based or functional assay
Give your result in pM as a bare value.

[
  {
    "Binder": "BCMA targeting trispecific protein 01C01 (other, not shown: large carriers; small tags and cut ends, trispecific) VHH: EVQLVESGGGLVQPGRSLTLSCAASTNIVSISPMGWYRQAPGKQRELVAAIHGHSTLYADSVKGRFTISRDNAKNSIYLQMNSLRPEDTALYYCNKVPWGDYHPGNVYWGQGTQVTVSS",
    "Endpoint name": "TDCC EC50 (EJM cells)",
    "Endpoint unit": "pM",
    "Value": 1.33
  },
  {
    "Binder": "BCMA targeting trispecific protein 02F04 (other, not shown: large carriers; small tags and cut ends, trispecific; also called 02F04 TriTAC) VHH: EVQLVESGGGLVQPGRSLTLSCAASTNIFSSSPMGWYRQAPGKQRELVAAIHGFSTLYADSVKGRFTISRDNAKNSIYLQMNSLRPEDTALYYCNKVPWGDYHPGNVYWGQGTQVTVSS",
    "Endpoint name": "TDCC EC50 (EJM cells)",
    "Endpoint unit": "pM",
    "Value": 1.72
  },
  {
    "Binder": "BCMA targeting trispecific protein 02H09 (other, not shown: large carriers; small tags and cut ends, trispecific) VHH: EVQLVESGGGLVQPGRSLTLSCAASTNIFSRSPMGWYRQAPGKQRELVAAIHGSSTLYADSVKGRFTISRDNAKNSIYLQMNSLRPEDTALYYCNKVPWGDYHPGNVYWGQGTQVTVSS",
    "Endpoint name": "TDCC EC50 (EJM cells)",
    "Endpoint unit": "pM",
    "Value": 2.88
  }
]

Then there is this binder:
Sure, the documented TDCC EC50 (EJM cells) for BCMA targeting trispecific protein 01D06 (other, trispecific; not shown: anti-albumin domain, anti-CD3 domain and the linkers of the trispecific (TriTAC) format) VHH: EVQLVESGGGLVQPGRSLTLSCAASTNIFSRSPMGWYRQAPGKQRELVAAIHGDSTLYADSVKGRFTISRDNAKNSIYLQMNSLRPEDTALYYCNKVPWGDYHPRNVTWGQGTQVTVSS is 13.5
